# procedure.text: NCI Yeast Anticancer Drug Screen. Data for the sgs1 mgt1 strain (AID 161);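 note: 0% = growth of cultures given vehicle only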
# test.settings: S. cerevisiae sgs1 mgt1 strain, at 50.0 µM, hits give high values
About 79,000 compounds went through this panel and 15% of them were active in at least one assay; those are over-represented in the sample as a whole. Where a SMILES comes first, the peptide text is derived from it. [ ]: non-standard residue; d: D form. The star is where a group is joined. ξ: configuration not given here. Cbz = O=C(OCc1ccccc1)*; ξNva = CCCC(N)C(=O)O
reported.property: growth inhibition (%)
The answer is to be given in %; state only the numeric part.

compound	growth inhibition [%]
C1=C(N2CCOCC2)CCC(N2CCOCC2)=C1	20.8
CCCCOS(=O)OCCCC	-6.1
O=C(O)c1ccoc1-c1ccccc1	10.7
O=[N+]([O-])c1ccc2[nH]c(-c3ccccc3)cc2c1	-3.6
Cc1ccc2nc(-c3ccc(N=NNc4ccc(-c5nc6ccc(C)c(S(=O)(=O)O)c6s5)cc4)cc3)sc2c1S(=O)(=O)O	-9.7

Consider the compound shown here: CCOP(=O)(O)C1CC2C3CC=C4CC(O)CCC4(C)C3CCC2(C)C1C(C)=O (stereo unspecified) What is its recorded growth inhibition?
-0.55

And the next one, C/C=C1\OC(n2cnc3c(N)ncnc32)C(O)C1O (stereo unspecified) ?
-14.9

And the next one, CC1(C)/C(=N\NC(N)=O)C2CCC1C2 (stereo unspecified) ?
2.65

And the next one, CC(C(=O)O)/C(=C\c1ccccc1)C(=O)O (stereo unspecified) ?
21.6

And the next one, OC1(c2ccccc2)CC2C=CC1C2 (stereo unspecified) ?
8.05

And the next one, C=CC1CNCCC1CC(=O)OCC (stereo unspecified) ?
3

And the next one, CC(=N\[O-])/C(C)=N/O.CC(=N\[O-])/C(C)=N/O.CCCc1ccncc1.[Cl-].[Cl-].[Rh+3] ?
-29.4

And the next one, COc1cc(C(=O)N2C[C@H](O)C[C@H]2C(=O)O)cc(OC)c1OC ?
-32.8

And the next one, CN1CSCC1C(=O)O (stereo unspecified) ?
-8.45

And the next one, CCCC(NC(=O)CNC(=O)OCc1ccccc1)C(=O)O (stereo not drawn) (Cbz-Gly-[ξNva]-OH) ?
2.35

And the next one, CCOC(=O)c1nc2ccccc2nc1NCc1ccc(OC)c(OC)c1 ?
-7.75

----------
# procedure.text: NCI Yeast Anticancer Drug Screen. Data for the rad50 strain (AID 155);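 note: 0% = growth of vehicle-only cultures of the same strain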
# test.settings: S. cerevisiae rad50 strain growth inhibition; at 50.0 µM; hits give high values
The panel holds about 79,000 compounds, 15% with a hit somewhere; the sample as a whole holds those more often.
compounds and their reported growth inhibition
The answer is to be given in %; state only the numeric part.

Use the examples below as a reference point.
compound	growth inhibition [%]
CCOC(=O)C(C(=O)OCC)C(C(=O)OCC)(C(=O)OCC)C(C(=O)OCC)C(=O)OCC	-15.2
Cc1ccc(N2CCN(c3ccc([N+](=O)[O-])cc3)CC2)cc1Cl	-6.15
CC(=O)CC(=O)CCCCCCCCCCCC(=O)CC(C)=O	-5.15
CCN(CC)CCSC(=O)c1ccc([N+](=O)[O-])cc1	20.1
Cc1ccc(NC(=O)CCCC(=O)C(C#N)c2ccccc2Cl)cc1C (centres undefined)	0.15
CCOC(COc1ccc2ccccc2c1)OCC	-18.6

Now for another entry.
Consider the compound shown here: CCNC(CCCC1CCCCC1)C(=O)O (centres undefined) What is its recorded growth inhibition?
-0.9
